biological target: Vesicular glutamate transporter 3 (Rattus norvegicus); experiment: Inhibitory conc. against Vesicular glutamate transporter (VGLUT), derived from Lineweaver-Burke analysis
Readout Label: Ki (µM)

Exercise: Give the measured Ki for O=C(O)c1cc(C(=O)O)c2cc(/C=C/c3ccccc3)ccc2n1
Solution: 129

Exercise: Give the measured Ki for O=C(O)c1cc(C(=O)O)c2cc(-c3ccc(-c4ccccc4)cc3)ccc2n1
Solution: 95

* * *

Target: Vesicular glutamate transporter 3 (Rattus norvegicus)
Sequence (whole entry): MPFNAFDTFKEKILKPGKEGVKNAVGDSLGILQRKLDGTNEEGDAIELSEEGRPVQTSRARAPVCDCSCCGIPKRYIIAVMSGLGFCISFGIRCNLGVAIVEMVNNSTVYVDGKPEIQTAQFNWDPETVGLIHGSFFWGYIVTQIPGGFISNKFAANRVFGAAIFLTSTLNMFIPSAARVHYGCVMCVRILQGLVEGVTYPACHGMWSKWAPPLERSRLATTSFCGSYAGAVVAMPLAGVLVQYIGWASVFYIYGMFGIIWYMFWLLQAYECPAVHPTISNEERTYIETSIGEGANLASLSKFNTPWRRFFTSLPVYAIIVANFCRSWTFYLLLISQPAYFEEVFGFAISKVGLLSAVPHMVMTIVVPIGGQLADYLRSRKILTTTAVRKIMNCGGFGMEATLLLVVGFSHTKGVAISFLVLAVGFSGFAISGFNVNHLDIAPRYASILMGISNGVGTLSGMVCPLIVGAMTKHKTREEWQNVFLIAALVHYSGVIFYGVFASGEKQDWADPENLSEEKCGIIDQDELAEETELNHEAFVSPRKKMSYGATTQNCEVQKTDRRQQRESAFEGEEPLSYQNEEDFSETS
Test: Inhibition of Vesicular glutamate transporter (VGLUT) by the ability to block the uptake of 250 uM of [3,4-3H]-L-glutamate into synaptic vesicles isolated from rat forebrain at equimolar conc. (250 uM )
Assay type: functional
Readout Label: Glutamate uptake remaining (% of control) (%)

Example entries and their recorded answers appear below.
Exercise: Give the measured Glutamate uptake remaining (% of control) for O=C(O)c1cc(C(=O)O)c2cc(Cl)ccc2n1
Solution: 73

Exercise: Give the measured Glutamate uptake remaining (% of control) for O=C(O)c1cc(C(=O)O)c2c(-c3ccccc3)cccc2n1
Solution: 100

Exercise: Give the measured Glutamate uptake remaining (% of control) for O=C(O)c1cc(C(=O)O)c2cc(OCCO)ccc2n1
Solution: 100

A. CCCCCCOc1ccc2nc(C(=O)O)cc(C(=O)O)c2c1
B. O=C(O)c1cc(C(=O)O)c2cc(-c3cccc4ccccc34)ccc2n1
C. O=C(O)c1cc(C(=O)O)c2cc(-c3ccc(-c4ccccc4)cc3)ccc2n1
Exercise: Please give the order of these molecules when sorted by Glutamate uptake remaining (% of control), largest value leading. In your reply, arrange the labels in the requested order.
Solution: A, B, C
(A: 79%, B: 53%, C: 20%)

I. O=C(O)c1cc(C(=O)O)c2ccc(O)cc2n1
II. O=C(O)c1cc(C(=O)O)c2c(-c3cccc4ccccc34)cccc2n1
Exercise: Looking only at measured Glutamate uptake remaining (% of control), which entry is lower, I or II ? // return label of chosen record
Solution: II

* * *

target: UniProtKB Q7TSF2; assay: Inhibition of Vesicular glutamate transporter (VGLUT) by the ability to block the uptake of 250 uM of [3,4-3H]-L-glutamate into synaptic vesicles isolated from rat forebrain at equimolar conc. (250 uM ); type: functional
Readout Label: Glutamate uptake remaining (% of control) (%)

Exercise: Give the measured Glutamate uptake remaining (% of control) for CCOc1ccc2nc(C(=O)O)cc(C(=O)O)c2c1
Solution: 97

Exercise: Give the measured Glutamate uptake remaining (% of control) for O=C(O)c1cc(C(=O)O)c2cccc(-c3ccccc3)c2n1
Solution: 88

Exercise: Give the measured Glutamate uptake remaining (% of control) for COc1ccc2nc(C(=O)O)cc(C(=O)O)c2c1
Solution: 100

Exercise: Give the measured Glutamate uptake remaining (% of control) for COc1ccc2c(C(=O)O)cc(C(=O)O)nc2c1
Solution: 100

Exercise: Give the measured Glutamate uptake remaining (% of control) for O=C(O)c1cc(C(=O)O)c2c(I)cccc2n1
Solution: 100

Exercise: Give the measured Glutamate uptake remaining (% of control) for O=C(O)c1cc(C(=O)O)c2cccc(Br)c2n1
Solution: 100
